target-under-test: Wee1 kinase domain (Homo sapiens, UniProt P30291)
Construct: Wee1 kinase domain was purchased from Carna (catalog #05-177); purchased Carna 05-177
Sequence (P30291 299-569 limits assumed): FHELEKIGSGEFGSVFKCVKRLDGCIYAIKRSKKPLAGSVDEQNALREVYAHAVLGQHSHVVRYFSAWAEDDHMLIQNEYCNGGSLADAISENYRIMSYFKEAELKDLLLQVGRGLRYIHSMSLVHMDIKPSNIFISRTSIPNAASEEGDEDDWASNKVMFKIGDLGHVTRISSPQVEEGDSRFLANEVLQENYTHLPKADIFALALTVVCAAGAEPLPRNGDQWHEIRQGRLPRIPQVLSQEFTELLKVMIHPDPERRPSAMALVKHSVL
experiment-notes: Wee1 Kinase Biochemical Assay (ADP-Glo)
assay-context: class symbols; 1 nM Wee1 enzyme, 15 uM ATP, 4 hours at 25° C.
observable: IC50

• Cc1cc(Nc2ncc3c(n2)N(c2cccc(C(C)(C)O)n2)[C@H]2CC(C)(C)OC[C@@]32C)ccc1N1C[C@@H]2C[C@H]1CN2C (single isomer, unassigned) = 0.01 to 0.1 µM
• CC1(C)C[C@H]2N(c3cccc(N4CCOC4=O)n3)c3nc(Nc4ccc(C5CNC5)cc4)ncc3[C@@]2(C)CO1 = < 0.01 µM
• CN1CCC(c2ccc(Nc3ncc4c(n3)N(c3cccc(N5CCOC5=O)n3)[C@@H]3CC(C)(C)OC[C@]43C)cc2)CC1 (single isomer, unassigned) = < 0.01 µM
• CN1CCN(c2ccc(Nc3ncc4c(n3)N(c3cccc(N=S(C)(C)=O)n3)[C@@H]3CC(C)(C)OC[C@]43C)cn2)CC1 (single isomer, unassigned) = < 0.01 µM
• CN(C)Cc1cccc(N2c3nc(Nc4ccc(N5CCOCC5)cc4)ncc3[C@]3(C)COC(C)(C)C[C@H]23)n1 (single isomer, unassigned) = 0.1 to 1 µM
• CNCc1ccnc(N2c3nc(Nc4ccc(N5CCOCC5)cc4)ncc3[C@]3(C)COC(C)(C)C[C@H]23)c1 (single isomer, unassigned) = ≥ 1 µM
